Values compiled from ChEMBL document CHEMBL5331102.

Some molecules, each annotated with its measured solubility thermodynamic at 24 h.
# ASSAY METHOD TEXT: Thermodynamic solubility of the compound in KH2PO4/Na2HPO4 buffer at pH 7.4 incubated for 24 hrs
# Type: physicochemical
# SETUP CONDITIONS: read-out: Therm_solubility
Unit µg/mL implied. Number only.

c1ccc(CC2CCN(CCCOc3ccccc3)CC2)cc1 = 2800

Turning now to a further molecule:
Ask: Which solubility thermodynamic at 24 h value belongs to c1ccc(CC2CCN(CCOc3ccccc3)CC2)cc1 ?
Reply: 7800

###

Some compounds, each annotated with its measured logP.
# ASSAY METHOD TEXT: Lipophilicity, logP of the compound
# Type: physicochemical
# SETUP CONDITIONS: octanol/water
Answer field: number only, no words.

c1ccc(CC2CCN(CCCOc3ccccc3)CC2)cc1 = 4.38

Turning now to a further compound:
Ask: Which logP value belongs to c1ccc(CC2CCN(CCOc3ccccc3)CC2)cc1 ?
Reply: 4
